Source: ChEMBL document CHEMBL4177638

Assay: Brain to plasma partition coefficient, Kp of the compound in rat
Format: ADME, cell-free
measure: Kp
Numbers only.

Solved entries:
[[record]]
compound_string = "Cc1nnc2sc(C(=O)N3CC(c4cccc(F)c4)C3)c(N)c2c1C"
measure = "Kp"
numeric_readout = 2.1

[[record]]
compound_string = "Cc1nnc2sc(C(=O)N3CC(c4ccc(F)cc4)C3)c(N)c2c1C"
measure = "Kp"
numeric_readout = 2.3

[[record]]
compound_string = "Cc1nnc2sc(C(=O)N3CC(c4ccccc4)C3)c(N)c2c1C"
measure = "Kp"
numeric_readout = 2.6


Next up:
Fill blank: measured Kp of the compound Cc1nnc2sc(C(=O)N3CC(C4CCCCC4)C3)c(N)c2c1C is ____.
8.46

* * *

Biological target: Muscarinic acetylcholine receptor M4 (Homo sapiens, UniProt P08173)
Assay: Positive allosteric modulation of human M4 receptor expressed in CHO cells co-expressing Gqi5 assessed as increase in acetylcholine-induced calcium mobilization
Criterion: EC50 strictly under 200 nM. Met: t. Not met: f.

Sample answers from the record:
[[record]]
compound = "Cc1nnc2sc(C(=O)N3CC(c4ccc(Br)cc4)C3)c(N)c2c1C"
qualitative_label = "f"

[[record]]
compound = "Cc1nnc2sc(C(=O)N3CC(c4ccc(Cl)cc4)C3)c(N)c2c1C"
qualitative_label = "f"

[[record]]
compound = "Cc1nnc2sc(C(=O)N3CC(C)(F)C3)c(N)c2c1C"
qualitative_label = "f"

[[record]]
compound = "Cc1nnc2sc(C(=O)N3CC(c4cccc(F)c4)C3C)c(N)c2c1C (stereo unspecified)"
qualitative_label = "f"

[[record]]
compound = "CCCCC1(F)CN(C(=O)c2sc3nnc(C)c(C)c3c2N)C1"
qualitative_label = "f"

[[record]]
compound = "Cc1nnc2sc(C(=O)N3CC(c4ccccc4)C3)c(N)c2c1C"
qualitative_label = "t"

[[record]]
compound = "Cc1cccc(C2CN(C(=O)c3sc4nnc(C)c(C)c4c3N)C2)c1"
qualitative_label = "f"

[[record]]
compound = "COc1ccc(C2CN(C(=O)c3sc4nnc(C)c(C)c4c3N)C2)cc1"
qualitative_label = "f"

[[record]]
compound = "Cc1nnc2sc(C(=O)N3CC(c4cccc(F)c4)C3)c(N)c2c1C"
qualitative_label = "t"

[[record]]
compound = "Cc1nnc2sc(C(=O)N3CC(c4ccc(F)cc4)C3)c(N)c2c1C"
qualitative_label = "t"


Okay, next one:
Lab note: confirm whether the reported EC50 for this compound is below 200 nM, equality not counting. compound: Cc1nnc2sc(C(=O)N3CC(O)(c4ccccc4)C3)c(N)c2c1C
f

* * *

Target: Muscarinic acetylcholine receptor M4 (Homo sapiens)
Sequence (whole entry): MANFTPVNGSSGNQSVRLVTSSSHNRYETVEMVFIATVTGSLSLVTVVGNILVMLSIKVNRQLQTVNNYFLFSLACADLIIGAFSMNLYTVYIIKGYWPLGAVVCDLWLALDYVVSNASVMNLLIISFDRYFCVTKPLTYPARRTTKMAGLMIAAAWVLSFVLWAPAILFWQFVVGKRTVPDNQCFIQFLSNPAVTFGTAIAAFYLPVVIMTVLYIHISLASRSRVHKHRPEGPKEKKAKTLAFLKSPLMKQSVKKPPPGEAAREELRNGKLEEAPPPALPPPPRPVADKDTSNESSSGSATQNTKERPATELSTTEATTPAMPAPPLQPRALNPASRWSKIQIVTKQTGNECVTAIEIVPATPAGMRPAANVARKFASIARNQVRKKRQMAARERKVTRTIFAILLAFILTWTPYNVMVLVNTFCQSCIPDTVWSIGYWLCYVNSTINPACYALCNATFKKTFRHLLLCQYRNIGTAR
Test: Positive allosteric modulation of human M4 receptor expressed in CHO cells co-expressing Gqi5 assessed as increase in acetylcholine-induced calcium mobilization relative to acetylcholine
Assay type: functional, cell-based
measure: %max (%)
One number for each entry, in %.

[[record]]
compound_string = "Cc1nnc2sc(C(=O)N3CC(C4CCCCC4)C3)c(N)c2c1C"
numeric_readout = 54

[[record]]
compound_string = "COC1(c2cccc(F)c2)CN(C(=O)c2sc3nnc(C)c(C)c3c2N)C1"
numeric_readout = 36

[[record]]
compound_string = "Cc1nnc2sc(C(=O)N3CC(c4ccccc4)C3)c(N)c2c1C"
numeric_readout = 65

[[record]]
compound_string = "Cc1nnc2sc(C(=O)N3CC(c4cccs4)C3)c(N)c2c1C"
numeric_readout = 78

[[record]]
compound_string = "Cc1nnc2sc(C(=O)N3CC(F)(c4ccccn4)C3)c(N)c2c1C"
numeric_readout = 78


Hey, can you go through the list below and give me %max for every item?
1. Cc1nnc2sc(C(=O)N3CC(O)(c4ccccc4)C3)c(N)c2c1C
2. Cc1nnc2sc(C(=O)N3CC(c4ccc(F)cc4)C3)c(N)c2c1C
3. Cc1nnc2sc(C(=O)N3CC(C)(F)C3)c(N)c2c1C
4. Cc1nnc2sc(C(=O)N3CC(F)(c4cccc(F)c4)C3)c(N)c2c1C
5. Cc1nnc2sc(C(=O)N3CC(c4ccccc4F)C3)c(N)c2c1C
6. Cc1ccc(C2CN(C(=O)c3sc4nnc(C)c(C)c4c3N)C2)cc1

1. 30
2. 80
3. 98
4. 67
5. 75
6. 82
